- tgt: Influenza Hemagglutinin A (influenza A virus)
- assay_summary: ELISA on Influenza Hemagglutinin A (1 ug/mL); 293 supernatant diluted 1:10000
assay_metric: ELISA signal

binder	measured_value
F1-04 (VHH) VHH: QVQLVESGGGLVQVGGSLRLSCAASERPSSNYAMGWFRQAPGKEQEFVAAIYWSGGGTAYGDSVKGRFTISKDNAKNTVYLQMNDLKPEDTGMYYCTTDHYGSWSYEYGSWGQGTQVTVSS	0.058
F2-20 (VHH) VHH: QVQLVESGGGLVQAGGSLRLSCAASGRTFSRYAMGWFRQAPGKEREFVARISWSGDITYYADSVKGRFTISRDNAKNTVYLQMNSLKPEDTAVYYCAADAILRTRPPYESDYWGQGTQVTVSS	0.269
F2-02 (VHH) VHH: QVQLVESGGGLVQAGGSLRLSCAASGRTFRSFAMGWFRQAPGKEREFVATISWWSNNTYYADSVKGRFTISRDIAKNTVYLQMNSLKPEDTAVYYCAADLGPWLTAGQYDYWGQGTQVTVSS	0.405
F2-24 (VHH) VHH: QVQLVESGGGLVQAGGSLRLSCASSGHTFNSYVMGWFRQAPGKEREFVAAIRPSGVSTYYADSVKGRFTISRDNAKNTVSLEMNSLKPEDTAVYYCAGDRDHSMMAVRRLSSYRQWGRGTQVTVSS	0.15

Reference source: patent US12065483
